Source: patent US8735553

Recorded IL-2 release in HuT78/P3Z, IC50 by entry
# target_or_system: P3Z chimeric PD-1 receptor (human)
# Sequence (chain, as listed by the source mutant limits assumed): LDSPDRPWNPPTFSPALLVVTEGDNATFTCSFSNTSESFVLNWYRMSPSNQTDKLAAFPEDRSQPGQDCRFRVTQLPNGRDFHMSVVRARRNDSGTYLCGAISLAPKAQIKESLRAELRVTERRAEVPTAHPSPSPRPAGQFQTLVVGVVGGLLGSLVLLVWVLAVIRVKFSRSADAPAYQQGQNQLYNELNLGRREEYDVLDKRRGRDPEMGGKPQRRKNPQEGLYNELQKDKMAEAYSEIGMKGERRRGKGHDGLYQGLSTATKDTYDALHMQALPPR
# protocol_summary: cell-based or functional assay

hu326-2 S85N (antibody, V domains shown, mAb; constant regions not restated (hu326-1 is IgG2 / kappa); Back mutation to murine) VH: QVQLVQSGSELKKPGASVKVSCKASGYTFTNYGMNWVRQAPGQGLEWMGWINNNNGEPTYAQGFRGRFVFSLDTSASTAYLQISNLKTEDTAVYFCARDVMDYWGQGTTVTVSS VL: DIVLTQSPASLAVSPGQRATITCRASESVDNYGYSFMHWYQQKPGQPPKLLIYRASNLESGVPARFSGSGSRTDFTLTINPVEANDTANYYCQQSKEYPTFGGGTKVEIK; 0.093 µg/mL
hu326-2 S9P (antibody, V domains shown, mAb; constant regions not restated (hu326-1 is IgG2 / kappa); Back mutation to murine) VH: QVQLVQSGPELKKPGASVKVSCKASGYTFTNYGMNWVRQAPGQGLEWMGWINNNNGEPTYAQGFRGRFVFSLDTSASTAYLQISSLKTEDTAVYFCARDVMDYWGQGTTVTVSS VL: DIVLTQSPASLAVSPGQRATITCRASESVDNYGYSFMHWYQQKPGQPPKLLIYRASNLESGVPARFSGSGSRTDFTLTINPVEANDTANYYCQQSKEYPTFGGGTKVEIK; 0.075 µg/mL

Determine from records and report IL-2 release in HuT78/P3Z, IC50 for hu326-2 A76V (antibody, V domains shown, mAb; constant regions not restated (hu326-1 is IgG2 / kappa); Forward mutation to human) VH: QVQLVQSGSELKKPGASVKVSCKASGYTFTNYGMNWVRQAPGQGLEWMGWINNNNGEPTYAQGFRGRFVFSLDTSVSTAYLQISSLKTEDTAVYFCARDVMDYWGQGTTVTVSS VL: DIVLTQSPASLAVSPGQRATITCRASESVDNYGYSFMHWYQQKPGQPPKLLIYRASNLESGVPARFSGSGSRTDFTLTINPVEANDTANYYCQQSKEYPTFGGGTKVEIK
0.071 µg/mL
